# system.tested: cysteines in MDA-MB-231 and Ramos cells (Homo sapiens, UniProt Q9NQ88)
# Sequence (Q9NQ88 whole entry, the tested form may be a part): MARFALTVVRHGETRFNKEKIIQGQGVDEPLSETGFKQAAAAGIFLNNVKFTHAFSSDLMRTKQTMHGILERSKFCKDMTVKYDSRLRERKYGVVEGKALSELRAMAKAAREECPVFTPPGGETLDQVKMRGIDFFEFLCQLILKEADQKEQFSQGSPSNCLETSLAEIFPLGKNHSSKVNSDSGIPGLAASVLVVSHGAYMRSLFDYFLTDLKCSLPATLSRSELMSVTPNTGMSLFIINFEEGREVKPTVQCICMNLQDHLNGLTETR
# assay.details: Competitive isoTOP-ABPP in situ (fragment-treated cells)
# Assay type: cell-based
# setup.conditions: 200 μM, insitu, 231
Provide the reported isoTOP-ABPP ratio Q9NQ88_C114 of each item.
I only need the number, thanks.

Determine its reported isoTOP-ABPP ratio Q9NQ88_C114: CC(C)CCOCCNC(=O)CCl [compound 27] 0.4

Determine its reported isoTOP-ABPP ratio Q9NQ88_C114: O=C(CCl)NCCc1c[nH]c2ccccc12 [compound 13] 1.1

Determine its reported isoTOP-ABPP ratio Q9NQ88_C114: CC1CCc2ccccc2N1C(=O)CCl (stereo not drawn) [compound 45] 4.6

Determine its reported isoTOP-ABPP ratio Q9NQ88_C114: O=C(CCl)NC12CC3CC(CC(C3)C1)C2 [compound 21] 0.9

Determine its reported isoTOP-ABPP ratio Q9NQ88_C114: O=C(CCl)N1CCN(S(=O)(=O)c2ccccc2F)CC1 [compound 10] 2.1

Determine its reported isoTOP-ABPP ratio Q9NQ88_C114: Cc1ccc(C=C(C#N)C(=O)NCCN2CCOCC2)cc1 [compound 41] 0.6

Numbers sourced from patent US10670605B2.
